From: patent US20260226084A1

test system: MiaPaca-2 cells; assay: MiaPaca-2 Cell Proliferation Assay; type: cell-based; details: Homo sapiens, MIA PaCa-2, MiaPaca-2 cells; Table 2; read-out: Inhibition of cell proliferation in MiaPaca-2 (IC50 class)
MEASUREMENT_TYPE: IC50

Solved entries (count: 6):
COMPOUND	IC50
Cc1ccc(NC(=O)c2cc(C(F)(F)F)cnn2)cc1-c1ccnc(-c2ccnc(/N=C/N(C)C)c2)c1	< 100 nM
Cc1ccc(NC(=O)c2cc(C(C)(C)F)cnn2)cc1-c1ccnc(-c2ccnc(NC(=O)C3CC3)c2)c1	100 to 500 nM
CC(=O)Nc1cc(-c2cc(-c3cc(NC(=O)c4ccc(C(F)F)nc4)c(F)cc3C)ccn2)ccn1	< 100 nM
CNCC(=O)Nc1cc(-c2cc(-c3cc(NC(=O)c4cc(C(C)(F)F)cnn4)ccc3C)ccn2)ccn1	100 to 500 nM
Cc1ccc(NC(=O)c2cc(C3CC3)cnn2)cc1-c1cc(N[C@H](C)CO)nc(-c2cn[nH]c2)c1	< 100 nM
Cc1ccc(NC(=O)c2cc(C(F)(F)F)cnn2)cc1-c1ccnc(-c2ccnc(NC(=O)C3CNCC3(F)F)c2)c1 (stereo not shown)	100 to 500 nM

Task item: GET IC50 where system = MiaPaca-2 cells and item = `CC(=N)Nc1cc(-c2cc(-c3cc(NC(=O)c4cc(C(F)(F)F)cnn4)ccc3C)ccn2)ccn1`
Reply: 500 to 1000 nM

Task item: GET IC50 where system = MiaPaca-2 cells and item = `Cc1ccc(NC(=O)c2cc(C(C)(F)F)cnn2)cc1-c1ccnc(-c2cnn(C)c2)c1`
Reply: 100 to 500 nM

Task item: GET IC50 where system = MiaPaca-2 cells and item = `Cc1ccc(NC(=O)c2cc(C(F)(F)F)cnn2)cc1-c1ccnc(-c2ccoc2)c1`
Reply: 100 to 500 nM

Task item: GET IC50 where system = MiaPaca-2 cells and item = `Cc1ccc(NC(=O)c2cc(C(C)C)cnn2)cc1-c1cncc(-c2ccnc(NC(=O)C3CC3)c2)c1`
Reply: 500 to 1000 nM
